# Measured On: Luciferin 4-monooxygenase (Photinus pyralis)
# Assay Protocol: Biochemical firefly luciferase enzyme assay for NPC (AID 624030);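 further: purified P. pyralis luciferase at 10 nM with luciferin and ATP substrate; 0% = DMSO and -100% = full luciferase inhibition by PTC124 control; nearly all actives have a fitted effect of over 70% in size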
# Reported Conditions: purified P. pyralis luciferase, luminescence, 5 min; series mostly up to 58.6 µM
Results filed as inconclusive are left out. Active and inactive are the calls of the source. The call rests on the fitted dose curve; in most records, active means well fitted inhibition curve with a large enough effect; inconclusive means small, poorly fitted or top-dose-only effect; inactive means flat fitted curve, though single readings scatter.

| Compound | Measured On | outcome |
| --- | --- | --- |
| CN1CCCN=C1COC(=O)C(O)(c1ccccc1)C1CCCCC1 (configuration not stated) | Luciferin 4-monooxygenase (Photinus pyralis) | inactive |
| COc1ccc(C(=O)N2CCN(CC(=O)N3CCOCC3)CC2)cc1 | Luciferin 4-monooxygenase (Photinus pyralis) | inactive |
| CCCCCCCCCCCCCCCCCCO | Luciferin 4-monooxygenase (Photinus pyralis) | inactive |
| Nc1ccc(S(=O)(=O)c2ccc(N)cc2)cc1 | Luciferin 4-monooxygenase (Photinus pyralis) | inactive |
| NC(N)=NCCN1CCCCCCC1 | Luciferin 4-monooxygenase (Photinus pyralis) | inactive |
| COc1ccc(Cc2cnc(N)nc2N)cc1OC | Luciferin 4-monooxygenase (Photinus pyralis) | inactive |
| Cc1[nH]c(C)c(Cl)c(=O)c1Cl | Luciferin 4-monooxygenase (Photinus pyralis) | inactive |

----------
# Assay Protocol: Primary qHTS for inhibitors of nuclear receptor binding SET domain protein 2 (NSD2) in an RCH-ACV wild type WT cells (2C) (AID 1645877); further: nearly all actives have a fitted effect of over 70% in size; on activity change, negative = cell killing: on the % scale 0 is the no-effect control and ±100 the full control effect
# Reported Conditions: RCH-ACV (leukaemia line) NSD2 WT (2C) viability, CellTiter-Glo, 72 h; series mostly up to 44.9 µM
Results filed as inconclusive are left out. The source made the active and inactive calls. Calls follow the shape of the dose curve; as a rule, active = well fitted inhibition curve with a large enough effect; inconclusive = small, poorly fitted or top-dose-only effect; inactive = no such curve, though single readings can be large or run the other way.

| Molecule | activity change, negative = cell killing |
| --- | --- |
| CCCCCC(C)N (centres undefined) | inactive |
| O=C(O)COC(=O)Cc1ccccc1Nc1c(Cl)cccc1Cl | inactive |
| CC(=O)OC[C@H]1O[C@@](COC(C)=O)(O[C@H]2O[C@H](COC(C)=O)[C@@H](OC(C)=O)[C@H](OC(C)=O)[C@H]2OC(C)=O)[C@@H](OC(C)=O)[C@@H]1OC(C)=O | inactive |
| Nc1ncnc(Nc2ccccc2)n1 | inactive |

----------
# System: W2
# Assay Protocol: qHTS profiling for inhibitors of Plasmodium falciparum proliferation (AID 504749); further: nearly all actives have a fitted effect of over 60% in size; further: potency means the concentration at half of the fitted maximal effect
# Reported Conditions: P. falciparum in erythrocytes, SYBR Green DNA, 72 h; series mostly up to 28.7 µM
Results filed as inconclusive are left out. The source made the active and inactive calls. Calls come from the whole dose curve; as a rule, active = well fitted inhibition curve with a large enough effect; inconclusive = small, poorly fitted or top-dose-only effect; inactive = flat fitted curve, though single readings scatter.
Measured Endpoint: Potency

| Compound | Result |
| --- | --- |
| O=c1[nH]c(=O)c2ccccc2o1 | inactive |
| Cc1cc(OI)c(C(C)C)cc1-c1cc(C(C)C)c(OI)cc1C | 6.01 µM (active) |
| CCOc1ccc(C(=O)OCCN(CC)CC)cc1 | inactive |
| CCN1CC(CCN2CCOCC2)C(c2ccccc2)(c2ccccc2)C1=O (stereo not drawn) | 9.53 µM (active) |
| CCc1nnc(NS(=O)(=O)c2ccc(N)cc2)s1 | inactive |
| Nc1ccc(C(=O)Oc2ccccc2)c(O)c1 | inactive |
| Nc1ncnc(Nc2ccccc2)n1 | inactive |
| CC(CN(C)C)C(C)(O)Cc1ccc(Cl)cc1 (stereo not drawn) | 2.39 µM (active) |
| CC(C(=O)O)c1ccc2c(c1)Cc1cccnc1O2 (stereo not drawn) | inactive |
| CCN(CC)S(=O)(=O)c1ccc(C(=O)O)cc1 | inactive |
| Cc1c(C)c2c(c(C)c1OC(=O)c1cccnc1)CC[C@@](C)(CCC[C@H](C)CCC[C@H](C)CCCC(C)C)O2 | inactive |
| Cc1cccc(C(=O)O)c1O | inactive |
| CN1CCN(C(=O)C2CCCCC2)CC1 | inactive |

----------
# Assay Protocol: qHTS of pediatric cancer cell lines to identify multiple opportunities for drug repurposing: Primary screen for Rh41 cells (AID 1347108);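 further: luminescence drop marks cytotoxic hits; nearly all actives have a fitted effect of over 70% in size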
# Reported Conditions: Rh41 rhabdomyosarcoma viability, CellTiter-Glo luminescence, 48 h; series mostly up to 46 µM
Results filed as inconclusive are left out. Calls of active or inactive are those of the source. The call rests on the fitted dose curve; in most records, active means well fitted cell-killing curve with a large enough effect; inconclusive means small, poorly fitted or top-dose-only effect; inactive means no such curve, though single readings can be large or run the other way.

| Molecule | activity change, negative = cytotoxic |
| --- | --- |
| COCC(=O)Nc1c(I)c(C(=O)NCC(O)CO)c(I)c(C(=O)N(C)CC(O)CO)c1I (stereo not drawn) | inactive |
| CCN(CC)CC1CCCCN1CC(=O)N1c2ccccc2C(=O)Nc2cccnc21 (stereo not drawn) | inactive |
| C=CCOc1ccccc1OCC(O)CNC(C)C (stereo not drawn) | inactive |
| O=C(O)Cc1cn(-c2ccccc2)nc1-c1ccc(Cl)cc1 | inactive |
| OC[C@@H](O)[C@@H](O)[C@H](O)[C@H](O)CO | inactive |
| NC(=O)c1ccc([N+](=O)[O-])cc1Cl | inactive |
| COC(=O)c1ccc(O)cc1 | inactive |
| CN1CC(=O)NC1=N | inactive |
| NC(=O)CCCCC1CCSS1 (stereo not drawn) | inactive |
| C=CCN1C[C@H](C(=O)N(CCCN(C)C)C(=O)NCC)C[C@@H]2c3cccc4[nH]cc(c34)C[C@H]21 | inactive |
| Cc1ccc(C(C)C)c(O)c1 | inactive |
| CCCCCCCCCCOc1cc2c(=O)c(C(=O)OCC)c[nH]c2cc1OCC | 18.9% [at 4.84 µM] (inactive) |
| CC(C(=O)O)c1ccc2c(c1)Cc1cccnc1O2 (stereo not drawn) | inactive |
| CC(=O)NCc1c(I)c(NC(C)=O)c(I)c(C(=O)O)c1I | inactive |
| O=C(O)CCC(=O)O | inactive |
| NC(N)=NCCN1CCCCCCC1 | 22.2% [at 0.597 µM] (inactive) |
| CC(=O)OCC(COC(C)=O)OC(C)=O | inactive |
| CN/C(=C\[N+](=O)[O-])NCCSCc1csc(CN(C)C)n1 | inactive |
| C[C@@H]1O[C@@H](OC[C@H]2O[C@@H](Oc3c(-c4ccc(O)c(O)c4)oc4cc(O)cc(O)c4c3=O)[C@H](O)[C@@H](O)[C@@H]2O)[C@H](O)[C@H](O)[C@H]1O | inactive |
| C[N+]1(C)CCCC(OC(=O)C(O)(c2ccccc2)c2ccccc2)C1 (stereo not drawn) | inactive |
| O=C(O)[C@@H]1[C@H]2C[C@H]3c4[nH]c5ccccc5c4CCN3C[C@@H]2CC[C@@H]1O | inactive |
| COc1ccc(O)cc1 | inactive |
| O=C(/C=C/c1ccc(O)c(O)c1)O[C@@H]1C[C@@](OC(=O)/C=C/c2ccc(O)c(O)c2)(C(=O)O)C[C@@H](O)[C@@H]1O | inactive |

----------
# Tested on: Dd2
# Assay Protocol: qHTS profiling for inhibitors of Plasmodium falciparum proliferation (AID 504749); further: nearly all actives have a fitted effect of over 60% in size
# Reported Conditions: P. falciparum in erythrocytes, SYBR Green DNA, 72 h; series mostly up to 28.7 µM
# Protocol: NIH National Institute of Allergy and Infectious Diseases [NIAID] NIH Chemical Genomics Center [NCGC] […] Because mature erythrocytes lack DNA, only Plasmodium-derived DNA is detected. NCGC Assay Protocol Summary: The SYBR Green viability assay was adapted from a method described previously (Plouffe et al., 2008). […] The following morning, fluorescence intensity at 485(14) nm excitation and 535(25) nm emission wavelengths was measured on an EnVision (Perkin Elmer) plate reader. […]
Inconclusive results are not listed. Activity calls are given as the source filed them. Calls come from the whole dose curve; as a rule, active = well fitted inhibition curve with a large enough effect; inconclusive = small, poorly fitted or top-dose-only effect; inactive = flat fitted curve, though single readings scatter.
Classes used: 1 (active), -1 (inactive)

| Compound | Measured On | Class Label |
| --- | --- | --- |
| CCCCCCCC(=O)OCC(COC(=O)CCCCCCC)OC(=O)CCCCCCC | Dd2 | -1 |
| N[C@@H](Cc1ccc(O)cc1)C(=O)O | Dd2 | -1 |
| O=C(/C=C/c1ccccc1)OCc1ccccc1 | Dd2 | -1 |
| O=C1c2ccccc2S(=O)(=O)N1CCCCN1CCN(c2ncccn2)CC1 | Dd2 | -1 |
| O=C(O)c1ccccc1OP(=O)(O)O | Dd2 | -1 |
| CC(=O)OCC(COC(C)=O)OC(C)=O | Dd2 | -1 |
| CC(CN(C)C)C(C)(O)Cc1ccc(Cl)cc1 (stereo not given) | Dd2 | 1 |
| Cc1c(NC(C)C)c(=O)n(-c2ccccc2)n1C | Dd2 | -1 |
| CCCCCC(C)N (stereo not given) | Dd2 | 1 |
| O=C(O)COC(=O)Cc1ccccc1Nc1c(Cl)cccc1Cl | Dd2 | -1 |
| O=C(CCBr)N1CCN(C(=O)CCBr)CC1 | Dd2 | -1 |
| COc1ccc(C(=O)NCc2ccc(OCCN(C)C)cc2)cc1OC | Dd2 | -1 |
| FC(F)(F)C(Cl)Br (stereo not given) | Dd2 | -1 |
| Nc1ccncc1N | Dd2 | -1 |
| Nc1ccc(C(=O)Oc2ccccc2)c(O)c1 | Dd2 | -1 |
| CC(=O)Nc1cccc(O)c1 | Dd2 | -1 |
| COc1ccc2cc(CCC(C)=O)ccc2c1 | Dd2 | -1 |
| CNc1c2c(nn1C)CCCC2 | Dd2 | -1 |
| C[C@@H]1O[C@@H](OC[C@H]2O[C@@H](Oc3c(-c4ccc(O)c(O)c4)oc4cc(O)cc(O)c4c3=O)[C@H](O)[C@@H](O)[C@@H]2O)[C@H](O)[C@H](O)[C@H]1O | Dd2 | -1 |
| CC(=O)N(CC(O)CO)c1c(I)c(C(=O)NCC(O)CO)c(I)c(C(=O)NCC(O)CO)c1I (stereo not given) | Dd2 | -1 |
| O=C(c1ccccc1)C(O)c1ccccc1 (stereo not given) | Dd2 | -1 |
| CC(C)(C)C(=O)OCOC(=O)[C@@H]1N2C(=O)[C@@H](NC(=O)[C@H](N)c3ccccc3)[C@H]2SC1(C)C | Dd2 | -1 |
| O=S1(=O)OC(c2ccc(O)cc2)(c2ccc(O)cc2)c2ccccc21 | Dd2 | -1 |
| CC(=O)N[C@@H](Cc1ccc(O)cc1)C(=O)O | Dd2 | -1 |
| CCN(CC)S(=O)(=O)c1ccc(C(=O)O)cc1 | Dd2 | -1 |
